Where do these numbers come from? They come from PubChem BioAssay (NCI).

Test system: MALME-3M melanoma
Assay: NCI-60 one-dose screen, 48 h
Conditions: 10 µM unless noted
About 83,000 compounds went through this panel and 20% of them were active in at least one assay; those are over-represented in the sample as a whole. Calls of active or inactive are those of the source. The calls were made as follows: active = growth percent below 10; inactive = the rest.
Labels: True (active), False (inactive)

compound	class.name
COc1ccc(C(=O)C(CN(C)C)c2ccccc2)cc1 (stereo unspecified)	False
COc1ccc(/C=c2\c(=O)n(-c3ccccc3)c3nn4c(=O)c(=O)[nH]nc4n23)cc1	False
N#Cc1ccc(NC(=O)Nc2nc3ccc(OC(F)(F)F)cc3s2)cc1	True
O=[N+]([O-])c1ccccc1CN1CCCCC1	False
Brc1cccc(-n2ncc3c(Nc4ccc(-c5nnc(-c6ccccc6)o5)cc4)ncnc32)c1	False
C=CCn1c(C)nc2cc(Nc3nc(Nc4ccc5nc(C)n(CC=C)c5c4)nc4ccccc34)ccc21	False

----------
Test system: MOLT-4 leukemia
Test: NCI-60 one-dose screen, 48 h (100 = growth as untreated, 0 = no growth, -100 = all killed)
Conditions: 10 µM unless noted
This is part of a sample that, as a whole, favours compounds with a hit. Of some 83,000 tested, about 20% had one in any assay.
Items are presented alongside their recorded growth.

compound	assay.target	growth, %
COc1ccc(NC(=O)/C=C/c2ccc(NC(=O)N3CCCC3)cc2)cn1	MOLT-4 leukemia	101
COc1ccc(-c2cn(-c3cccc(C(=O)/C=C/c4ccc(O)c(OC)c4)c3)c(=O)[nH]2)cc1	MOLT-4 leukemia	5.6
C=CCn1c(SCC(=O)Nc2ccc(C(=O)/C=C/c3ccccc3)cc2)nnc1-c1ccc(OC)c(OC)c1	MOLT-4 leukemia	58.2
Clc1ccc(Nc2ncnc3c2sc2ncccc23)c(Cl)c1	MOLT-4 leukemia	8.22
CCOC(=O)c1ccc(NC(=O)NC2=NCCS2)cc1	MOLT-4 leukemia	19.7
C=CCOc1c(Br)cc(Br)cc1Br	MOLT-4 leukemia	64.6
COc1ccc(-n2nc(C(=O)NCC(=O)Nc3nc4cc(OC)ccc4s3)c3ccccc3c2=O)cc1	MOLT-4 leukemia	58.5
CCc1ccc(Nc2ncnc3c2cnn3-c2cccc(Br)c2)cc1	MOLT-4 leukemia	101
O=C(O)c1cn(-c2ccccc2)nc1-c1ccc(O)cc1	MOLT-4 leukemia	104
CC1(C)C2CCC(O)(C(=O)O)C1C2 (centres undefined)	MOLT-4 leukemia	115
Nc1cccc(S(=O)(=O)c2cccc(N)c2)c1	MOLT-4 leukemia	10.4
COc1cc(/C=C/C(=O)c2ccc(NC(=O)CSc3nnc(-c4ccc(Cl)cc4)n3-c3ccccc3)cc2)cc(OC)c1OC	MOLT-4 leukemia	40.8
CN1CCN(Cc2ccc(NC(=O)c3cncc(C#Cc4ncc5cnccn45)c3)cc2C(F)(F)F)CC1	MOLT-4 leukemia	43.5
COc1ccc(NC(=O)/C=C/c2ccc(Cl)c(Cl)c2)cn1	MOLT-4 leukemia	44.4
C=CCn1c(SCC(=O)Nc2ccc(/C(C)=N\O)cc2)nnc1-c1cc(-c2ccc(Cl)cc2)nc2ccccc12	MOLT-4 leukemia	-25.3
CNC(=O)c1cc(Oc2ccc(NC(=O)c3[nH]c(SC)nc3-c3ccc(F)cc3)cc2)ccn1	MOLT-4 leukemia	38.4
Clc1ccc(-c2nc(Br)cn3ccnc23)cc1	MOLT-4 leukemia	78.9
COc1ccc(/C(=C\c2cc(OC)c(OC)c(OC)c2)C(=O)N2CCNCC2)cc1	MOLT-4 leukemia	87.2
COc1cc(NCCCCC(C)N)c2nccc(C)c2c1 (centres undefined)	MOLT-4 leukemia	81.7
Cc1n(Cc2ccc3ccccc3n2)cc[n+]1Cc1ccc2ccccc2n1	MOLT-4 leukemia	98.3
COc1ccc(-c2nc(-c3cc(OC)cc(OC)c3)[nH]c2-c2ccc(OC)cc2)cc1	MOLT-4 leukemia	14.2
NC(=O)Nc1ccc2ncnc(Nc3cccc(O)c3)c2c1	MOLT-4 leukemia	98.8
O=C(CN1CCN(c2ccccc2)CC1)N1CCN(c2nnc(-c3ccc(Cl)cc3)c(-c3ccc(Cl)cc3)n2)CC1	MOLT-4 leukemia	2
CN1CCN(Cc2ccc(NC(=O)c3cccc(C#Cc4cnc(N)c5ncccc45)c3F)cc2C(F)(F)F)CC1	MOLT-4 leukemia	1.77
CN1CCN(Cc2ccc(NC(=O)c3cncc(C#Cc4ccc(N)nc4)c3)cc2C(F)(F)F)CC1	MOLT-4 leukemia	5.85
CC(=O)N(C)c1ccc(Nc2cc(C)[nH]c3ccc4ncnc4c23)cc1	MOLT-4 leukemia	1.82
CC(=O)c1c(C)nc(-c2cc(C)cc(Cl)c2)nc1-c1cccc(Oc2ccccc2)c1	MOLT-4 leukemia	27.9
ClCc1cccc(CSc2ncnc3c2ncn3Cc2cccc(CCl)c2)c1	MOLT-4 leukemia	5.6
O=c1c2sc3ncc(Cl)cc3c2nnn1-c1cccc(Cl)c1	MOLT-4 leukemia	90.2
O=C(NNC(=S)Nc1ccccc1)c1ccc(Nc2ncnc3c2cnn3-c2cccc(Br)c2)cc1	MOLT-4 leukemia	104
O=C1CC2(O)CSc3nc(=O)cc(n32)N1 (centres undefined)	MOLT-4 leukemia	107
CC1(C)C(N(O)C(=O)Nc2ccc(Cl)cc2)N(c2ccc(Cl)cc2)C(=O)N1CC(=O)N/N=C/C=C/c1ccc([N+](=O)[O-])o1 (centres undefined)	MOLT-4 leukemia	-21.5
COc1cc(CN2CCO[C@H](COc3cccc(F)c3)C2)ccc1Cl	MOLT-4 leukemia	52.8
COc1cc(-c2n/c(=C\c3c(O)[nH]c4cc(Cl)ccc34)cc3c2=Nc2ccccc2-3)cc(OC)c1OC	MOLT-4 leukemia	70.6
